SYSTEM: T1, mouse MSR1 on RAW264.7 cells (mouse, UniProt P30204 1-458)
T1 construct: whole, on cells; also called MSR1 positive RAW264.7 cells
T1 sequence (looked up): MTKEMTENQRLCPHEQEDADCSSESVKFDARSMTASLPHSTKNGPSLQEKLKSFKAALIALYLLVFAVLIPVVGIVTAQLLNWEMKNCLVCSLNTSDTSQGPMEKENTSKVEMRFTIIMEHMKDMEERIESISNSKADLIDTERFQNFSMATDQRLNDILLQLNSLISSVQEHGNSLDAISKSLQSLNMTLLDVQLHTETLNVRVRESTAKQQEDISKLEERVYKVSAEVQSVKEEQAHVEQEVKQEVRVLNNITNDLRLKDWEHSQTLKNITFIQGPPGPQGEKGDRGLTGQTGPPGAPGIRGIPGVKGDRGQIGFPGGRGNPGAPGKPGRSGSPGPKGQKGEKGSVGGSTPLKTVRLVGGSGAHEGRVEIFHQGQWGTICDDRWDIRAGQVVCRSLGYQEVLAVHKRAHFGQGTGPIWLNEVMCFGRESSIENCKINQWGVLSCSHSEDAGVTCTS
ASSAY OVERVIEW: flow cytometry, RAW264.7 cells
Give S/N (MFI over unstained MFI) for every item shown.

1. H1H27732P-N297Q (antibody, human IgG1, V domains shown, human IgG1 Fc with N297Q) VH: QLQLQESGPGLVKPSETLSLTCTVSGGSISSSTYYWGWIRQPPGKGLEWIGSFYYSGSTYYNPSLKSRVTISVGTSKNQFSLKLSSVTAADTAVYFCARGGLLGRPFVIWGQGTMVTVSS VL: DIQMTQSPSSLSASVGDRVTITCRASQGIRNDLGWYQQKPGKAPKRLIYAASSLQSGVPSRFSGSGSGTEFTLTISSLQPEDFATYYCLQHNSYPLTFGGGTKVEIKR :: 1

Proceed to the following item.
Incoming: Give its S/N (MFI over unstained MFI) value. Item: H1H21231N-N297Q (antibody, human IgG1, V domains shown, human IgG1 Fc with N297Q point mutation) VH: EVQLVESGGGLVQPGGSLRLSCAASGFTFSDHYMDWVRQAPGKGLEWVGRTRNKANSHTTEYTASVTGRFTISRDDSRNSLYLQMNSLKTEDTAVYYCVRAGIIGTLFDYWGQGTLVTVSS VL: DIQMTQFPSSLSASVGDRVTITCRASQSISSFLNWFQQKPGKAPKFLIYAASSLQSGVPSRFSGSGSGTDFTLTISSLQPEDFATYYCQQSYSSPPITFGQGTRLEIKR
Outgoing: 1
